- TEST: MTT assay cell viability
- Type: cell-based
- ASSAY CONDITIONS: human, MG63 cells, MG63, 24 h
RESULT TYPE: viability at 24 h (%)
Give bare numbers, in %.

Ask: So what's the measured viability at 24 h for this one? `C[C@H]1c2cccc(O)c2C(=O)C2=C(O)[C@]3(O)C(=O)C(C(N)=O)=C(O)[C@@H](N(C)C)[C@@H]3[C@@H](O)[C@@H]21`
Result: 40

* * *

- TEST: MTT assay cell viability
- Type: cell-based
- ASSAY CONDITIONS: human, HDFC cells
RESULT TYPE: viability at 24 h (%)
One number for each entry, in %.

Ask: So what's the measured viability at 24 h for this one? C[C@H]1c2cccc(O)c2C(=O)C2=C(O)[C@]3(O)C(=O)C(C(N)=O)=C(O)[C@@H](N(C)C)[C@@H]3[C@@H](O)[C@@H]21 [doxycycline]
Result: 40

* * *

- TEST: MTT assay cell viability
- Format: cell-based
- ASSAY CONDITIONS: mouse, MC3T3 cells, MC3T3, 24 h
RESULT TYPE: viability at 24 h (%)
One number for each entry, in %.

Ask: So what's the measured viability at 24 h for this one? `C[C@H]1c2cccc(O)c2C(=O)C2=C(O)[C@]3(O)C(=O)C(C(N)=O)=C(O)[C@@H](N(C)C)[C@@H]3[C@@H](O)[C@@H]21`
Result: 40
